SYSTEM_UNDER_TEST: UniProt:P51679
PROTOCOL_DETAILS: Inhibitory concentration against human C-C chemokine receptor type 4
pIC50: −log10 of the molar value.
Provide the reported pIC50 of each item.

Sample answers from the record:
CCN(CC)CCCC(C)Nc1ccnc(COc2ccccc2)c1 (stereo not drawn) = < 4.52
CCN(CC)CCCC(C)Nc1ccnc(COc2ccc(OC)cc2OC)n1 (stereo not drawn) = < 4.52

Item CCN(CC)CCCC(C)Nc1nc(C(=O)Nc2ccccc2)nc2ccccc12 (stereo not drawn) was tested on UniProt:P51679; the reported pIC50 is < 5.00

* * *

SYSTEM_UNDER_TEST: C-C chemokine receptor type 4 (Homo sapiens, UniProt P51679)
Sequence (P51679 whole entry): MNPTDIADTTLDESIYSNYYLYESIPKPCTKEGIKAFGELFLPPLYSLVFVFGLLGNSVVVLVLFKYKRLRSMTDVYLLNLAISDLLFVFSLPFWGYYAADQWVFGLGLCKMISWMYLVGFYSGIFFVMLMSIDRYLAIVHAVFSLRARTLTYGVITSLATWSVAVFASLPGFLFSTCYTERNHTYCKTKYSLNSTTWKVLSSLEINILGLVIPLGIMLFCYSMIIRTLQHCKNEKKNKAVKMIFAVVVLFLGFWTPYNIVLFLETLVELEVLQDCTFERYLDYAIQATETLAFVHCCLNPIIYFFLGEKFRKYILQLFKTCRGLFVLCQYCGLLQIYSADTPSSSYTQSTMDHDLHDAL
PROTOCOL_DETAILS: Inhibitory concentration against human C-C chemokine receptor type 4
MEASUREMENT_KIND: IC50

Sample answers from the record:
CCN(CC)CCCC(C)Nc1nccc(NCc2ccc(Cl)cc2Cl)n1 (centres undefined) = 0.27 µM
CCN(CC)CCCC(C)Nc1nc(CCCc2ccccc2)nc2ccccc12 (centres undefined) = > 10 µM
CC(C)CCCC(C)Nc1nccc(OCc2ccc(Cl)cc2Cl)n1 (centres undefined) = > 10 µM

Please fill in: IC50 reported for CCN(CC)CCCC(C)Nc1ccnc(COc2cccc(OC)c2)n1 (centres undefined) = > 30 µM
